Measured pIC50, listed per entry.
- ASSAY_SYSTEM: ROMK (Kir1.1) channel (Homo sapiens (Human), UniProt P48048)
- Sequence (P48048 whole entry): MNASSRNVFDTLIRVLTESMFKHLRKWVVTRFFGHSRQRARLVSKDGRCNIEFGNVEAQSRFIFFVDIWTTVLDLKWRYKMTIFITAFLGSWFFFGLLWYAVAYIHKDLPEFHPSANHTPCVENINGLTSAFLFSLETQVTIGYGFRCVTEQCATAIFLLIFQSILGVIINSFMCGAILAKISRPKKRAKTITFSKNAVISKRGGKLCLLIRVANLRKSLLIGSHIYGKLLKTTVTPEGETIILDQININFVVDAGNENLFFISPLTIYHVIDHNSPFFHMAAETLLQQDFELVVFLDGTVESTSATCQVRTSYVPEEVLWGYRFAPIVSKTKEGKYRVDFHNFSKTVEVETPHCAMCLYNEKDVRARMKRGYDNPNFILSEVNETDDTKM
- EXPERIMENTAL_PROTOCOL: Thallium Flux Assay
Convention used: pIC50 is expressed as -log10 of the molar concentration.

                           molecular_string  measured_parameter  quantitative_readout
0  CC1=C(N2CC[C@]3(CC[C@@H](N[C@H](C)c4ccc(-n5cnnn5)nn4)CC3)C2=O)COC1=O               pIC50                  7.04
1  CC1=C(N2CC[C@]3(CC[C@H](N(CCO)Cc4ccc(-n5cnnn5)cn4)CC3)C2=O)COC1=O               pIC50                  6.80

Enquiry: For ROMK (Kir1.1) channel (Homo sapiens (Human), UniProt P48048), give the measured pIC50 of the entry CC1=C(N2CC[C@]3(CC[C@@H](N(C)Cc4ccc5c(ccc6nnnn65)c4)CC3)C2=O)COC1=O
Return: 7.68

Enquiry: For ROMK (Kir1.1) channel (Homo sapiens (Human), UniProt P48048), give the measured pIC50 of the entry CC1=C(N2CC[C@]3(CC[C@@H](NCc4ccc5c(c4F)Cn4nnnc4-5)CC3)C2=O)COC1=O
Return: 8.22

Enquiry: For ROMK (Kir1.1) channel (Homo sapiens (Human), UniProt P48048), give the measured pIC50 of the entry CC1=C(N2CC[C@]3(CC[C@H](N(C)Cc4ccc(-n5cnnn5)nc4)CC3)C2=O)COC1=O
Return: 7.55

Enquiry: For ROMK (Kir1.1) channel (Homo sapiens (Human), UniProt P48048), give the measured pIC50 of the entry CC1=C(N2CC[C@]3(CC[C@@H](N(CCO)Cc4ccc(-n5cnnn5)nc4)CC3)C2=O)COC1=O
Return: 7.52

Enquiry: For ROMK (Kir1.1) channel (Homo sapiens (Human), UniProt P48048), give the measured pIC50 of the entry CC1=C(N2CC[C@]3(CC[C@@H](N[C@@H](C)c4ccc5c(c4)CCc4nnnn4-5)CC3)C2=O)COC1=O
Return: 7.36

Enquiry: For ROMK (Kir1.1) channel (Homo sapiens (Human), UniProt P48048), give the measured pIC50 of the entry CC1=C(N2CC[C@]3(CC[C@H](N[C@H](C)c4ccc5c(c4)CCc4nnnn4-5)CC3)C2=O)COC1=O
Return: 6.47

Enquiry: For ROMK (Kir1.1) channel (Homo sapiens (Human), UniProt P48048), give the measured pIC50 of the entry O=C1C=C(N2CC[C@]3(CC[C@H](NCc4cnc(-n5cnnn5)cn4)CC3)C2=O)CO1
Return: 5.70

Enquiry: For ROMK (Kir1.1) channel (Homo sapiens (Human), UniProt P48048), give the measured pIC50 of the entry CC1=C(N2CC[C@]3(CC[C@@H](NCc4ccc(-n5cnnn5)nn4)CC3)C2=O)COC1=O
Return: 8.00

Enquiry: For ROMK (Kir1.1) channel (Homo sapiens (Human), UniProt P48048), give the measured pIC50 of the entry CC1=C(N2CC[C@]3(CC[C@@H](N(C)Cc4ccc(-n5ncnn5)cc4)CC3)C2=O)COC1=O
Return: 8.47

Enquiry: For ROMK (Kir1.1) channel (Homo sapiens (Human), UniProt P48048), give the measured pIC50 of the entry CC1=C(N2CC[C@]3(CC[C@@H](N(C)Cc4ccc(-n5cnnn5)nn4)CC3)C2=O)COC1=O
Return: 7.72

Data credit: patent US9718808B2
